# key: entry, value: CC50
# Tested on: ET (luc-ubi-neo/ET) Huh7 human hepatoma cell line
# Run conditions: read-out: cytotoxicity TC50; 72 h, CytoTox-1 colorimetric assay
Report as a plain number; the unit µM is understood.

Answered examples (3):
INSERT INTO assay_data (substance, reported_measurement) VALUES
  ('Cu-GGHAALEAKICHQIEYYFGDF', 41.1),
  ('Cu-GGHGYrFKGGGYGRKKRRQRRR', 96),
  ('Cu-GGHYrFKGGGYGRKKRRQRRR', 84);

// CC50 value for "Cu-GGHGAALEAKICHQIEYYFGDF" : 52

----------
# Protocol details: in vitro
# Run conditions: human
Property label: CC50 at 72 h

// CC50 at 72 h value for N=C(N)NCCC[C@@H](NC(=O)[C@@H](N)Cc1ccc(O)cc1)C(=O)N[C@@H](Cc1ccccc1)C(=O)N[C@@H](CCCCN)C(N)=O [YrFK, reference compound] : > 100 µM

----------
# Test system: HCV RNA replicon in ET (luc-ubi-neo/ET) Huh7 cells
# Run conditions: read-out: antiviral IC50; 72 h, replicon-derived Luc activity
pIC50: −log10 of the molar value.
Property label: pIC50

// pIC50 value for N=C(N)NCCC[C@@H](NC(=O)[C@@H](N)Cc1ccc(O)cc1)C(=O)N[C@@H](Cc1ccccc1)C(=O)N[C@@H](CCCCN)C(N)=O [YrFK, reference compound] : < 4.00

----------
# Test system: ET (luc-ubi-neo/ET) Huh7 human hepatoma cell line
# Run conditions: read-out: cytotoxicity TC50; 72 h, CytoTox-1 colorimetric assay
Property label: CC50

INSERT INTO measurements (substance, assayed_target, reported_measurement) VALUES
  ('Cu-GGHGYrFKGGGKDEL', 'ET (luc-ubi-neo/ET) Huh7 human hepatoma cell line', '> 100 µM'),
  ('Cu-GGHGKYKETDLLILFKDDYFAKKNEERK', 'ET (luc-ubi-neo/ET) Huh7 human hepatoma cell line', '> 100 µM'),
  ('Cu-GGHGKYKETDLLILFKDDYFAKKNEERKKDEL', 'ET (luc-ubi-neo/ET) Huh7 human hepatoma cell line', '> 50 µM');

// moving on: another record for CC50
// CC50 value for "Cu-GGHKYKETDLLILFKDDYFAKKNEERKYGRKKRRQRRR" : > 50 µM

// provenance: patent US20140377289A1
